Molecular target: PI3Kβ (Homo sapiens (Human))
Sequence (P42338 whole entry, canonical isoform): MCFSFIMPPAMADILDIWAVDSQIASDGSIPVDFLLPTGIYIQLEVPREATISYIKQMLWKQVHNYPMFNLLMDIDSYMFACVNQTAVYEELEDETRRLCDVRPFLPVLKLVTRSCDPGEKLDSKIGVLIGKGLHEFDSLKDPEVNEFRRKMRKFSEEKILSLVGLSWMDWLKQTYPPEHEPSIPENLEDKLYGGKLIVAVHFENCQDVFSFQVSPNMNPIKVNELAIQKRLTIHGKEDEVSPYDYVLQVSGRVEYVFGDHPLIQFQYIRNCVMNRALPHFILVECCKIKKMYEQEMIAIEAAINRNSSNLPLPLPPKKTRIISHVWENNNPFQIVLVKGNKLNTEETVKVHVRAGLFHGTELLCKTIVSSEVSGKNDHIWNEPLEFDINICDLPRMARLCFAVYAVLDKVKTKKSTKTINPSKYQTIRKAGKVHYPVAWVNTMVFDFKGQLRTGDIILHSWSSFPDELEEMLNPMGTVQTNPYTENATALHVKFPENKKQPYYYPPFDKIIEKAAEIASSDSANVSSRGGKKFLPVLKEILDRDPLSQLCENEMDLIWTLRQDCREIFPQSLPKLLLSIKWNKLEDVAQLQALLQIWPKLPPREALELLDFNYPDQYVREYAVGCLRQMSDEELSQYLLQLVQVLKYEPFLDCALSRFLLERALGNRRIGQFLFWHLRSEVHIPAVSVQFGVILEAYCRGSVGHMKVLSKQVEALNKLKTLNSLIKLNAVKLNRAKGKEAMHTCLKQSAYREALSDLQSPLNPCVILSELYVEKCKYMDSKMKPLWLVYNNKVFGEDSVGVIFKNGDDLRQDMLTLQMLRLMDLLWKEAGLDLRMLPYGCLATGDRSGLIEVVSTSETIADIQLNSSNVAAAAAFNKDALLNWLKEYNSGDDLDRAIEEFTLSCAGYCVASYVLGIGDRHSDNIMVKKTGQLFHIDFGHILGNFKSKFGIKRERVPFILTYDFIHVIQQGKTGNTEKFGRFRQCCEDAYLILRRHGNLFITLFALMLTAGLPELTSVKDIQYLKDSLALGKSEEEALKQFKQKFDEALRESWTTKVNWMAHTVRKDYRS
Sequence (P27986 whole entry partner, canonical isoform): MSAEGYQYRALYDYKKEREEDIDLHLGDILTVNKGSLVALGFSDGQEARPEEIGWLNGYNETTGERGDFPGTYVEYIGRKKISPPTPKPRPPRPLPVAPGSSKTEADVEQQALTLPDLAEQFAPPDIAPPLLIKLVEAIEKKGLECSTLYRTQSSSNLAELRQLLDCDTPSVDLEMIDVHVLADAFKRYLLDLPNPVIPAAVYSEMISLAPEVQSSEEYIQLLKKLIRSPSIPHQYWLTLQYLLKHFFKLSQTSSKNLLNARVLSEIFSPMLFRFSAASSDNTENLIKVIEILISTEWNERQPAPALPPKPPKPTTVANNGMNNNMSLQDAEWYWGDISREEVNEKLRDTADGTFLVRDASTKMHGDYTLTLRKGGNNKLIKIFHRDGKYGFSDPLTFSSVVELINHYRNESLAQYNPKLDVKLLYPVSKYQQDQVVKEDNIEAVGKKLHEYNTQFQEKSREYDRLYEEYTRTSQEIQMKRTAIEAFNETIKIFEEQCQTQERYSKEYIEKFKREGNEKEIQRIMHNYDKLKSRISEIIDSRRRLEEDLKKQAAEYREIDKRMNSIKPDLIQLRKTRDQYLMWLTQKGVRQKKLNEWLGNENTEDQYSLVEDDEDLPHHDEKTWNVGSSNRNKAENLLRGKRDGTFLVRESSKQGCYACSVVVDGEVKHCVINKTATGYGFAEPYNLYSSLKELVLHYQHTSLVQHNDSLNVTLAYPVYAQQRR
Experiment: TR-FRET enzymatic activity assay against PI3K isoforms
Conditions: PI3Kβ, TR-FRET, 2×Km ATP, 30 minutes at 25° C.
pIC50: −log10 of the molar value.

compound	pIC50
C[C@H](Nc1ncnc(N)c1C#N)c1nc2cccc(Cl)c2c(=O)n1CCCNCc1ccccc1	6.60
C[C@H](NC(=O)c1nc(Br)c(N)nc1N)c1nc2cccc(Cl)c2c(=O)n1CCCN	7.12
C[C@H](Nc1nc(N)nc(N)c1C#N)c1nc2cccc(Cl)c2c(=O)n1CCCN	7.82
C[C@H](Nc1ncnc(N)c1C#N)c1nc2cccc(Cl)c2c(=O)n1[C@H]1C[C@H](N)C1	6.21

* * *

Biological target: PI3Kγ (Homo sapiens (Human))
Test: TR-FRET enzymatic activity assay against PI3K isoforms
Conditions: 2×Km ATP, 30 minutes at 25° C.

compound	unit_label	bound_type	IC50
C[C@H](Nc1nc(N)nc(N)c1C#N)c1nc2cccc(Cl)c2c(=O)n1CCCS(C)(=O)=O [Compound 111]	µM	=	0.53
C[C@H](Nc1nc(N)nc(N)c1C#N)c1nc2cccc(Cl)c2c(=O)n1CCC(O)CNC(C)(C)C (stereo partly shown) [Compound 75]	µM	=	2.3
C[C@H](Nc1ncnc(N)c1C#N)c1nc2cccc(Cl)c2c(=O)n1CCN [Compound 26]	µM	≥	10
C[C@H](Nc1ncnc(N)c1C#N)c1nc2cccc(Cl)c2c(=O)n1CC1CCCCN1 (stereo partly shown) [Compound 91]	µM	≥	10

* * *

Target: PI3Kδ (Homo sapiens (Human), UniProt O00329)
Sequence (O00329 whole entry, one chain of several, canonical isoform): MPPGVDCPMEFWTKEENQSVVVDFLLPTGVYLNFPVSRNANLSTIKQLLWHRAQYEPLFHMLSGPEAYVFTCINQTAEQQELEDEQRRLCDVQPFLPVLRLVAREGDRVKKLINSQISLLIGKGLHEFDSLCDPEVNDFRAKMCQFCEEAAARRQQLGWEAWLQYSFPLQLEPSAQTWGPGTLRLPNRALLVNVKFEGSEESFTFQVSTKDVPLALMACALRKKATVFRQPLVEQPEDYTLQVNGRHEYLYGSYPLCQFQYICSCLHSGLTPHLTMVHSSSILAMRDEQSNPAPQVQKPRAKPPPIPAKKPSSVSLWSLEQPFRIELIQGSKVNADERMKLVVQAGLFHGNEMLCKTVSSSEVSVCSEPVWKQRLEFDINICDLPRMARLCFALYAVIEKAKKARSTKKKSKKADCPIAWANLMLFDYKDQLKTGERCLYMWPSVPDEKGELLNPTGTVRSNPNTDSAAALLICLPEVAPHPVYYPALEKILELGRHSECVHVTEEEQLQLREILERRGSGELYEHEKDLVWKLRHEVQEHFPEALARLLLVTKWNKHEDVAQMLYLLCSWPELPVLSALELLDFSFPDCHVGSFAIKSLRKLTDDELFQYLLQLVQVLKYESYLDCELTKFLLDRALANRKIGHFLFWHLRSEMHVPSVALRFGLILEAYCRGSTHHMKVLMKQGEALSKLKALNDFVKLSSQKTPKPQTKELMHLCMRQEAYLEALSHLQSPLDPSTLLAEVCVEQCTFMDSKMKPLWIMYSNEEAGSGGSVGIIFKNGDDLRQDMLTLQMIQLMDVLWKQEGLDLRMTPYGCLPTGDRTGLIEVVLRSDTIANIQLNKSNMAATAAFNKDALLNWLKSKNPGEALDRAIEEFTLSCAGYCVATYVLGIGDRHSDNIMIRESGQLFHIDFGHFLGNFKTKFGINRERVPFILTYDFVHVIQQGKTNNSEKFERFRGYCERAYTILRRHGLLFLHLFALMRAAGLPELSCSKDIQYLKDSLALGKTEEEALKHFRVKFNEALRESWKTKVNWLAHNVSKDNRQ
Assay: TR-FRET enzymatic activity assay against PI3K isoforms
Format: biochemical
Conditions: 2×Km ATP, 30 minutes at 25° C.
pIC50: −log10 of the molar value.
The reader will find reported pIC50 values listed item by item below.

compound	pIC50
C[C@H](Nc1nc(N)nc(N)c1Cl)c1nc2cccc(Cl)c2c(=O)n1CCCN	7.46
CC(C)C[C@H](Nc1ncnc(N)c1C#N)c1nc2cccc(Cl)c2c(=O)n1CCCN	6.68
C[C@H](Nc1ncnc(N)c1C#N)c1nc2cccc(Cl)c2c(=O)n1CCCO	8.22
C[C@H](Nc1nc(N)nc(N)c1C#N)c1nc2cccc(Cl)c2c(=O)n1CCCS(C)(=O)=O	8.52
C[C@H](Nc1ncnc(N)c1C#N)c1nc2cccc(Cl)c2c(=O)n1CCCN1CCN(C)CC1	8.22
N#Cc1c(N)nc(N)nc1N[C@H](c1nc2c(Cl)ccc(Cl)c2c(=O)n1[C@H]1C[C@H](O)C1)C1CC1	8.52
C[C@H](Nc1ncnc(N)c1C#N)c1nc2cccc(Cl)c2c(=O)n1CCCNCc1ccccc1	8.05
CC[C@H](Nc1ncnc(N)c1C#N)c1nc2cccc(Cl)c2c(=O)n1CCCN	7.10

* * *

Molecular target: PI3Kγ (Homo sapiens (Human), UniProt P48736)
Sequence (P48736 whole entry, canonical isoform): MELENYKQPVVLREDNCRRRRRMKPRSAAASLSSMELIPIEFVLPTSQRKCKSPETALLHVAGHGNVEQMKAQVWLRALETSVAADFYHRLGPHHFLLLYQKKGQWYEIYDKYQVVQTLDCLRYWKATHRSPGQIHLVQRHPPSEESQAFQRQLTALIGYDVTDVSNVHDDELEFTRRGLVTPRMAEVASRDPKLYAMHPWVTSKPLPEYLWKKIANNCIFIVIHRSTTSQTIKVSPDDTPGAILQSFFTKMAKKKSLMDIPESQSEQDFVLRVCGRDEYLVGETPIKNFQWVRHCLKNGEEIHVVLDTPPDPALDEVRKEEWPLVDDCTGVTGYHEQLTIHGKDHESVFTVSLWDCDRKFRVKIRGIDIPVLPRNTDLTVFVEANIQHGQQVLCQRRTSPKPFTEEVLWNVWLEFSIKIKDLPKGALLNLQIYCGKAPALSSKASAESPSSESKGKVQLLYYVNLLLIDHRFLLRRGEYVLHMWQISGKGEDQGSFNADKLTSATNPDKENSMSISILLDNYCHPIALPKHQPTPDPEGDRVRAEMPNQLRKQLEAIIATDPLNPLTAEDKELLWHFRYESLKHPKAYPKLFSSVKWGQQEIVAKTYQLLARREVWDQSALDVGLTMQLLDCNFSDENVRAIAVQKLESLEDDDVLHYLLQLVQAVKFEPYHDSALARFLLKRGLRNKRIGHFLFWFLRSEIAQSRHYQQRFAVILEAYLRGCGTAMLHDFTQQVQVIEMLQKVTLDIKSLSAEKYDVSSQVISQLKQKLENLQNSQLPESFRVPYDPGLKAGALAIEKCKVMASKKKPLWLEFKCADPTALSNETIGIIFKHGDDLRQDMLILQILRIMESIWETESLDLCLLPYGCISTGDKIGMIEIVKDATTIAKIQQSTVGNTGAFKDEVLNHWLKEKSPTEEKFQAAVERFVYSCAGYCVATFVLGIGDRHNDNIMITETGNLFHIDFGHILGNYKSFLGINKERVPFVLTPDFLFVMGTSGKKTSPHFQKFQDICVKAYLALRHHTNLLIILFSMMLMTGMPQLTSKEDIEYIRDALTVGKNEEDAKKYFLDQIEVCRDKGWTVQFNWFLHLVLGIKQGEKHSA
Test: TR-FRET enzymatic activity assay against PI3K isoforms
Format: biochemical
Details: 2×Km ATP, 30 minutes at 25° C.
pIC50: −log10 of the molar value.
reported_endpoint: pIC50

compound	system	reported_endpoint	bound_type	number
C[C@H](Nc1nc(N)nc(N)c1C#N)c1nc2cccc(Cl)c2c(=O)n1CCc1ccn[nH]1 [Compound 140]	PI3Kγ (Homo sapiens (Human), UniProt P48736)	pIC50	=	6.23
C[C@H](Nc1ncnc(N)c1C#N)c1nc2cccc(Cl)c2c(=O)n1CCC(C)(C)N [Compound 3]	PI3Kγ (Homo sapiens (Human), UniProt P48736)	pIC50	≤	5.00
C[C@H](Nc1ncnn2ccnc12)c1nc2cccc(Cl)c2c(=O)n1N(C)CCN [Compound 11]	PI3Kγ (Homo sapiens (Human), UniProt P48736)	pIC50	≤	5.00
N#Cc1c(N)nc(N)nc1N[C@H](c1nc2c(Cl)ccc(Cl)c2c(=O)n1CCCC(N)=O)C1CC1 [Compound 65]	PI3Kγ (Homo sapiens (Human), UniProt P48736)	pIC50	=	6.33
N#Cc1c(N)ncnc1N[C@H](c1nc2cccc(Cl)c2c(=O)n1CCCN)C1CC1 [Compound 40]	PI3Kγ (Homo sapiens (Human), UniProt P48736)	pIC50	≤	5.00
C[C@H](Nc1ncnc(N)c1C#N)c1nc2cccc(Cl)c2c(=O)n1N(CCN)Cc1ccccc1 [Compound 12]	PI3Kγ (Homo sapiens (Human), UniProt P48736)	pIC50	≤	5.00
NCCCn1c([C@@H](Nc2ncnc3[nH]cc(Br)c23)C2CC2)nc2cccc(Cl)c2c1=O [Compound 43]	PI3Kγ (Homo sapiens (Human), UniProt P48736)	pIC50	=	5.47
C[C@H](Nc1ncnc(N)c1C#N)c1nc2cccc(Cl)c2c(=O)n1CC1CCCN1 (stereo partly shown) [Compound 90]	PI3Kγ (Homo sapiens (Human), UniProt P48736)	pIC50	≤	5.00
C[C@H](Nc1nc(N)nc(N)c1C#N)c1nc2cccc(Cl)c2c(=O)n1CC1CCCNC1 (stereo in doubt) [Compound 124]	PI3Kγ (Homo sapiens (Human), UniProt P48736)	pIC50	=	5.49
C[C@H](Nc1ncnc(N)c1C#N)c1nc2cccc(Cl)c2c(=O)n1CCCN(C)C [Compound 57]	PI3Kγ (Homo sapiens (Human), UniProt P48736)	pIC50	≤	5.00
C[C@H](Nc1nc(N)nc(N)c1C#N)c1nc2cccc(Cl)c2c(=O)n1[C@H]1C[C@@H](O)C1 [Compound 93]	PI3Kγ (Homo sapiens (Human), UniProt P48736)	pIC50	=	6.80
C[C@H](Nc1nc(N)nc(N)c1Cl)c1nc2cccc(Cl)c2c(=O)n1CCCN [Compound 7]	PI3Kγ (Homo sapiens (Human), UniProt P48736)	pIC50	≤	5.00
CCOCCn1c([C@H](C)Nc2nc(N)nc(N)c2C#N)nc2cccc(Cl)c2c1=O [Compound 130]	PI3Kγ (Homo sapiens (Human), UniProt P48736)	pIC50	=	6.39
C[C@H](Nc1ncnc(N)c1C#N)c1nc2cccc(Cl)c2c(=O)n1CCCNCc1ccccc1 [Compound 6]	PI3Kγ (Homo sapiens (Human), UniProt P48736)	pIC50	≤	5.00
NCCCn1c([C@@H](Nc2nc(N)nc(N)c2Cl)C2CC2)nc2cccc(Cl)c2c1=O [Compound 38]	PI3Kγ (Homo sapiens (Human), UniProt P48736)	pIC50	≤	5.00
N#Cc1c(N)nc(N)nc1N[C@H](c1nc2c(Cl)cc(F)cc2c(=O)n1CCCC(N)=O)C1CC1 [Compound 121]	PI3Kγ (Homo sapiens (Human), UniProt P48736)	pIC50	=	6.12
